Origin of values: patent US9884849B2

# Target Entity: CDK2/CycE (Homo sapiens)
# Construct: GST; purchased ProQinase GmbH (Freiburg, Germany); host or cells: insect cells (Sf9)
# Procedure Text: CDK2/CycE high ATP kinase assay (Method 2b, TR-FRET)
# Type: biochemical
# Experimental Parameters: 2 mM ATP
pIC50: −log10 of the molar value.
Measured Parameter: pIC50

Here is how some compounds turned out for pIC50.
{"Compound": "CS(=O)(Cc1cccc(Nc2ncc(F)c(-c3ccc(F)c4ccoc34)n2)c1)=NC#N (single isomer, unassigned) [Example 2]", "pIC50": 6.45}
{"Compound": "CS(=N)(=O)Cc1cc(F)cc(Nc2ncc(F)c(-c3ccc(F)c4ccoc34)n2)c1 (racemic) [Example 10]", "pIC50": 5.74}
{"Compound": "CS(=O)(Cc1cc(Nc2ncc(F)c(-c3ccc(F)c4ccoc34)n2)cc(S(F)(F)(F)(F)F)c1)=NC#N (racemic)", "pIC50": 5.84}
{"Compound": "CS(=N)(=O)Cc1cc(F)cc(Nc2ncc(F)c(-c3ccc(F)c4ccoc34)n2)c1 (single isomer, unassigned) [Example 11]", "pIC50": 6.04}
{"Compound": "CS(=O)(Cc1cc(F)cc(Nc2ncc(F)c(-c3ccc(F)c4ccoc34)n2)c1)=NC#N (single isomer, unassigned) [Example 8]", "pIC50": 6.09}
{"Compound": "Cc1cc(CS(C)(=O)=NC#N)cc(Nc2ncc(F)c(-c3ccc(F)c4ccoc34)n2)c1 (single isomer, unassigned) [Example 15]", "pIC50": 6.08}
{"Compound": "CS(=N)(=O)Cc1cc(Nc2ncc(F)c(-c3ccc(F)c4ccoc34)n2)cc(S(F)(F)(F)(F)F)c1 (racemic)", "pIC50": 5.81}
{"Compound": "CS(=O)(Cc1cccc(Nc2ncc(F)c(-c3ccc(F)c4ccoc34)n2)c1)=NC#N (single isomer, unassigned) [Example 3]", "pIC50": 6.32}

1. CS(=O)(Cc1cccc(Nc2ncc(F)c(-c3ccc(F)c4ccoc34)n2)c1)=NC#N (racemic) [Example 1]
2. CS(=N)(=O)Cc1cccc(Nc2ncc(F)c(-c3ccc(F)c4ccoc34)n2)c1 (single isomer, unassigned) [Example 6]
3. CS(=O)(Cc1cc(F)cc(Nc2ncc(F)c(-c3ccc(F)c4ccoc34)n2)c1)=NC#N (single isomer, unassigned) [Example 9]
Arrange items by their pIC50 values in increasing order. As an answer, provide the labels arranged in the order called for.
3, 2, 1
(3: 5.65, 2: 6.00, 1: 6.25)

I. CS(=O)(Cc1cc(F)cc(Nc2ncc(F)c(-c3ccc(F)c4ccoc34)n2)c1)=NC#N (racemic) [Example 7]
II. Cc1cc(CS(C)(=O)=NC#N)cc(Nc2ncc(F)c(-c3ccc(F)c4ccoc34)n2)c1 (racemic) [Example 13]
Lab log: flag the item ( I or II ) with the smaller pIC50 figure. Identify your selection by its label.
II
